# target: Transforming acidic coiled-coil-containing protein 3 (Homo sapiens)
# assayNotes: ARNT/TACC3 binding disruptors, dose response, biochemical, AlphaScreen, dry powder (AID 720563)
# conditionsUsed: AlphaScreen His-ARNT PAS-B/GST-TACC3 binding, luminescence
Activity calls are given as the source filed them.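 Rule for the calls: active = compounds whose fitted AC50 lies at or below twice their top valid test dose; inconclusive = flat curve between -70 and -30 percent, or unreliable curve fit; inactive = the rest.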
Outcome codes: TRUE (active), FALSE (inactive)

{"columns": ["compound", "classAssignment"],
 "data": [
  ["CC(C)Cc1nnc(NC(=O)c2cccc(S(=O)(=O)N3CCOCC3)c2)s1", "FALSE"],
  ["Nc1nc(-c2ccccn2)nc(N)c1Cc1ccc(Cl)cc1Cl", "TRUE"],
  ["O=C(Nc1nnc(C2=COCCO2)o1)c1ccc(S(=O)(=O)N2CCCCC2)cc1", "TRUE"],
  ["COC(=O)Cc1cc(=O)n(-c2nc3ccccc3[nH]2)[nH]1", "TRUE"],
  ["CC(C)C(=O)NC(c1ccco1)c1ccc2cccnc2c1O (stereo not given)", "TRUE"]
]}
